target: human CRHR2 (Homo sapiens, UniProt Q13324); construct: expressed in transfected cells; experiment: Human CRHR2 cAMP assay (HTRF) in HEK293 cells stably expressing human CRHR2; assay type: cell-based; details: HEK293 cells overexpressing human CRHR2; relative EC50, maximum 10 nM human UCN2; mean ± SE; read-out: hCRHR2 cAMP EC50 (pM, ± SE)
Sequence (Q13324 1-438 isoform Q13324-2): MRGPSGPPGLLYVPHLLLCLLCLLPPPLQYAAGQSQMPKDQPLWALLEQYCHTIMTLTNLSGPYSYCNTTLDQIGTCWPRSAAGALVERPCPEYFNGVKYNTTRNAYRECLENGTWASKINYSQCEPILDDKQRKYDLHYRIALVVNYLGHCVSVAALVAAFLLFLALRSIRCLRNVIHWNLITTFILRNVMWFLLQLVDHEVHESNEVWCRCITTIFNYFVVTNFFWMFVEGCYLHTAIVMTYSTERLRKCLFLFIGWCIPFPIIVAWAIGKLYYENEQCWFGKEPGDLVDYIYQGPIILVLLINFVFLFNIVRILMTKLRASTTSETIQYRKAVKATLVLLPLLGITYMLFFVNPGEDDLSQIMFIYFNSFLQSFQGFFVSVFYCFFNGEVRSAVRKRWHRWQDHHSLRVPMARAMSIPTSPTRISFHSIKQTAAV
*1 amine or outer side, *2 acyl side, *3 side chain or, on linkers, in order; H or OH if unused. Bridges are numbered along the chain shown (N, C = ends). Roman numbers before positions name the chains, in order. Side-chain parts run from the residue outwards. [ ]: non-standard residue; d: D form. The star is where a group is joined. C20 diacid = O=C(O)CCCCCCCCCCCCCCCCCCC(=O)*; C18 diacid = O=C(O)CCCCCCCCCCCCCCCCC(=O)*; γGlu = O=C(O)[C@H](CCC(=O)[*:2])N[*:1]; εLys = N[C@@H](CCCCN[*:1])C(=O)[*:2]; pGlu = O=C1CC[C@@H](C(=O)O)N1; αMeL = CC(C)C[C@](C)(N)C(=O)O; AEEA = NCCOCCOCC(=O)O; Aib = CC(C)(N)C(=O)O; Ahx = NCCCCCC(=O)O; βAla = NCCC(=O)O
Label met when EC50 is strictly below 10 pM; at or above that, label not met.

Find out if reported EC50 for Ac-GSPSIVTS[αMeL]DVPT[Aib][αMeL]LQKILEQERAEKARQQAK([Gly-βAla-βAla-βAla-βAla-γGlu-C20 diacid])EAAEILAQV-NH2 [SEQ ID NO: 8] is less than 10 pM
not met

Consider the substance I: Ac-GSPSIVTS[αMeL]DVPT[Aib][αMeL]LQKILEQERAEKARQQAKEAAEILAQV-NH2 / II: {C20 diacid}-EPEPEP[γGlu] (amide I:33-II:C) [SEQ ID NO: 16] . Is its EC50 strictly less than 10 pM?
not met

Lab note: EC50 threshold 10 pM. Does this substance come in strictly under it? Ac-GSPSIVTS[αMeL]DVPT[Aib][αMeL]LQKILEQERAEKARQQAK([Ahx-AEEA-γGlu-C20 diacid])EAAEILAQV-NH2 [SEQ ID NO: 4]
not met

Regarding Ac-PPPIVTS[αMeL]D[dV]PT[Aib][αMeL]LQK[Aib]LEQERAEKARQQAK([γGlu-AEEA-εLys-C20 diacid])ENTEILAQV-NH2 [SEQ ID NO: 46] , kindly confirm whether its EC50 is beneath 10 pM.
not met

A record lists {C20 diacid-εLys-AEEA-γGlu}-GSPSIVTS[αMeL]DVPT[Aib][αMeL]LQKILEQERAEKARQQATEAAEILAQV-NH2 [SEQ ID NO: 25] . Is its EC50 below 10 pM?
met

Given the entry [pGlu]GSPSGIVTS[αMeL]DVPT[Aib][αMeL]LQKILEQERAEKARQQAKEAAEILAQV-NH2 [SEQ ID NO: 23] , would its reported EC50 be below 10 pM?
not met

EC50 strictly < 10 pM for this substance? I: Ac-GSPSIVTS[αMeL]DVPT[Aib][αMeL]LQKILEQERAEKARQQAKEAAEILAQV-NH2 / II: {C20 diacid}-PPPPPP[γGlu] (amide I:33-II:C) [SEQ ID NO: 15]
not met

Dear colleague, could you confirm whether EC50 of [pGlu]GSPSGIVTS[αMeL]DVPT[Aib][αMeL]LQKILEQERAEKARQQAK([γGlu-AEEA-εLys-C20 diacid])EAAEILAQV-NH2 [SEQ ID NO: 22] falls below 10 pM? Thanks.
not met

Does the reported EC50 of I: Ac-GSPSIVTS[αMeL]DVPT[Aib][αMeL]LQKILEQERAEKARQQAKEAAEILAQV-NH2 / II: {C20 diacid-γGlu}-EKEKEK[AEEA] (amide I:33-II:C) [SEQ ID NO: 9] stay below 10 pM?
not met

I'd appreciate it if you could check whether γGlu-GPSIVTS[αMeL]D[dV]PI[Aib][αMeL]LQIKLEQERAEKARQQAK([AEEA-AEEA-γGlu-C20 diacid])ENTEILAQV-NH2 [SEQ ID NO: 45] has EC50 smaller than 10 pM.
met

For Ac-GSPSIVTS[αMeL]DVPT[Aib][αMeL]LQKILEQERAEKARQQAK([AEEA-Pro-Lys-Glu-γGlu-C20 diacid])EAAEILAQV-NH2 [SEQ ID NO: 3] , is the recorded EC50 below the cut-off of 10 pM?
not met

Criterion: EC50 strictly below 10 pM. Is it met by Ac-GSPSIVTS[αMeL]DVPT[Aib][αMeL]LQKILEQERAEKARQQAK([γGlu-Pro-Pro-Pro-εLys-C20 diacid])EAAEILAQV-NH2 [SEQ ID NO: 14] ?
met

Quick check: EC50 of Ac-GSPSIVTS[αMeL]DVPT[Aib][αMeL]LQKILEQERAEKARQQAK([γGlu-AEEA-AEEA-εLys-C20 diacid])EAAEILAQV-NH2 [SEQ ID NO: 17] under 10 pM?
met

Is the reported EC50 for [pGlu]GSPSGIVTS[αMeL]DVPT[Aib][αMeL]LQKILEQERAEKARQQAK([γGlu-AEEA-εLys-C18 diacid])EAAEILAQV-NH2 [SEQ ID NO: 24] strictly below 10 pM?
not met

Please determine if Ac-GSPSIVTS[αMeL]DVPT[Aib][αMeL]LQKILEQERAEKARQQAK([γGlu-AEEA-εLys-C18 diacid])EAAEILAQV-NH2 [SEQ ID NO: 21] is below 10 pM in terms of EC50.
not met

I wonder whether Ac-GSPSIVTS[αMeL]DVPT[Aib][αMeL]LQKILEQERAEKARQQAK([γGlu-εLys-γGlu-εLys-C20 diacid])EAAEILAQV-NH2 [SEQ ID NO: 18] has EC50 below 10 pM. Can you tell?
not met

State whether 10 pM exceeds EC50 recorded for Ac-GSPSIVTS[αMeL]DVPT[Aib][αMeL]LQKILEQERAEKARQQAK([γGlu-Pro-Lys-Glu-εLys-C20 diacid])EAAEILAQV-NH2 [SEQ ID NO: 13] .
met

Below 10 pM on EC50? Entry Ac-GSPSIVTS[αMeL]DVPT[Aib][αMeL]LQKILEQERAEKARQQAK([γGlu-εLys-AEEA-εLys-C20 diacid])EAAEILAQV-NH2 [SEQ ID NO: 19]
not met

Just wondering, is EC50 of Ac-GSPSIVTS[αMeL]DVPT[Aib][αMeL]LQKILEQERAEKARQQAK([γGlu-Pro-Lys-Glu-Ahx-C20 diacid])EAAEILAQV-NH2 [SEQ ID NO: 11] below 10 pM?
met

is_below(EC50, 10 pM) for Ac-GSPSIVTS[αMeL]DVPT[Aib][αMeL]LQKLLEQERAEKARQQAK([γGlu-AEEA-εLys-C20 diacid])EAAEILAQV-NH2 [SEQ ID NO: 2] ?
not met

Decide: EC50 of {C18 diacid-εLys-AEEA-γGlu}-GSPSIVTS[αMeL]DVPT[Aib][αMeL]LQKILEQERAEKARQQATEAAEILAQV-NH2 [SEQ ID NO: 28] strictly below 10 pM?
not met

Lab log: compare recorded EC50 with 10 pM; is it strictly lower for Ac-GSPSIVTS[αMeL]DVPT[Aib][αMeL]LQKILEQERAEKARQQAK([γGlu-AEEA-εLys-C20 diacid])EAAEILAQV-NH2 [SEQ ID NO: 1] ?
met
